Reference source for all entries: paper PMC6072853

Listing of entries alongside the reported IC50.
system: HeLa; assay: MTT antiproliferative assay, HeLa; format: cell-based, human; settings: Homo sapiens, 72 h, read-out: calculated IC50 value
Kindly answer with a numeric value in nM, unit omitted.

Solved entries:
COMPOUND	VALUE_UNIT	IC50
C[C@]12CC[C@H]3[C@@H](CCC4=CC(=O)CC[C@@H]43)[C@@H]1CC[C@H]2I	nM	1490
C[C@]12CC[C@H]3[C@@H](CCC4=CC(=O)CC[C@@H]43)[C@@H]1CC[C@H]2Br	nM	1690
C[C@]12CC[C@H]3[C@@H](CCC4=CC(=O)CC[C@@H]43)[C@@H]1CC[C@@H]2O [Compound 1, 19-nortestosterone, reference compound]	nM	650

Dear colleague, I am looking for the recorded IC50 of the following compound: C[C@]12CC[C@H]3[C@@H](CCC4=CC(=O)CC[C@@H]43)[C@@H]1CC[C@H]2Cl
1210

====

system: MCF-7; assay: MTT antiproliferative assay, MCF-7; format: cell-based, human; settings: Homo sapiens, MCF7; MCF-7, 30 μM, 72 h; read-out: Growth inhibition (%) ± SEM
inhibition at 30 µM values for the compounds below.

Reference set, count: 6
COMPOUND	inhibition at 30 µM
C[C@]12CC[C@H]3[C@@H](CCC4=CC(=O)CC[C@@H]43)[C@@H]1CC[C@H]2Cl	36.9%
C[C@]12CC[C@H]3[C@@H](CCC4=CC(=O)CC[C@@H]43)[C@@H]1CC[C@H]2OC(=O)c1cc([N+](=O)[O-])cc([N+](=O)[O-])c1	37.7%
C[C@]12CC[C@H]3[C@@H](CCC4=CC(=O)CC[C@@H]43)[C@@H]1CC[C@H]2OC(=O)c1ccc([N+](=O)[O-])cc1[N+](=O)[O-]	35.9%
C[C@]12CC[C@H]3[C@@H](CCC4=CC(=O)CC[C@@H]43)[C@@H]1CC[C@H]2I	< 20%
C[C@]12CC[C@H]3[C@@H](CCC4=CC(=O)CC[C@@H]43)[C@@H]1CC[C@H]2Br	< 20%
C[C@]12CC[C@H]3[C@@H](CCC4=CC(=O)CC[C@@H]43)[C@@H]1CC[C@H]2O	27.7%

What value of inhibition at 30 µM has been reported for the following compound? C[C@]12CC[C@H]3[C@@H](CCC4=CC(=O)CC[C@@H]43)[C@@H]1CC[C@@H]2O [Compound 1, 19-nortestosterone, reference compound]
< 20%

====

system: HeLa; assay: MTT antiproliferative assay, HeLa; format: cell-based, human; details: Homo sapiens, 10 μM, 72 h, read-out: Growth inhibition (%) ± SEM
inhibition at 10 µM listing for selected compounds.
Number in %, nothing else.

Below, 2 compounds whose answers are already recorded.
COMPOUND	VALUE_UNIT	inhibition at 10 µM
C[C@]12CC[C@H]3[C@@H](CCC4=CC(=O)CC[C@@H]43)[C@@H]1CC[C@@H]2O [Compound 1, 19-nortestosterone, reference compound]	%	99.5
C[C@]12CC[C@H]3[C@@H](CCC4=CC(=O)CC[C@@H]43)[C@@H]1CC[C@H]2I [Compound 5]	%	95.2

Attention now shifts to the item below.
What reported inhibition at 10 µM corresponds to C[C@]12CC[C@H]3[C@@H](CCC4=CC(=O)CC[C@@H]43)[C@@H]1CC[C@H]2Br [Compound 4, 17α-bromo-19-nortestosterone] on HeLa?
94.4
